- Experimental system: STAT3 (Homo sapiens)
- Construct: plasmid pSTAT3-TA-luc), which contains a stably operating STAT3 promoter; endogenous in cells
- Sequence (P40763 whole entry): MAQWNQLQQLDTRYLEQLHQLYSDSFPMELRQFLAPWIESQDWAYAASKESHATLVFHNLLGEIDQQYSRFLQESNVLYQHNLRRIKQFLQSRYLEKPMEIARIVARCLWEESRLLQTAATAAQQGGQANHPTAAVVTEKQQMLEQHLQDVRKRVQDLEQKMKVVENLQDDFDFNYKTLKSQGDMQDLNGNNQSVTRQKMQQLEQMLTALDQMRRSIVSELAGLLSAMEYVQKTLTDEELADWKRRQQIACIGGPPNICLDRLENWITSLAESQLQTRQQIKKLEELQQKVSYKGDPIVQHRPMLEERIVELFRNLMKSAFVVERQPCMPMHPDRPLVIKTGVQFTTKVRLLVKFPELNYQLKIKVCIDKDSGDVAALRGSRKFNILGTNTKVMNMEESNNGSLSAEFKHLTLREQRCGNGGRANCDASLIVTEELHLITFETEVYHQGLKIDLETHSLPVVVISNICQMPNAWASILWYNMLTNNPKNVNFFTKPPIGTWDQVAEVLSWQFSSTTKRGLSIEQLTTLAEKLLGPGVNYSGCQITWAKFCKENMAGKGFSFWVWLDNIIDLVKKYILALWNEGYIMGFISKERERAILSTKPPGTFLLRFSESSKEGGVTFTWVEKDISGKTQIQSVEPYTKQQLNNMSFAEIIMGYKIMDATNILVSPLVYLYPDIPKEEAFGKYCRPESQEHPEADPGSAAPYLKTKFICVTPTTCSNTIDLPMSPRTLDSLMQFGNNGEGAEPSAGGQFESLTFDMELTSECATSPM
- Protocol notes: STAT3 reporter gene (luciferase) assay in LNCaP stable cell line stimulated with IL-6
- Type: cell-based
- Condition label: LNCaP stable cell line (pSTAT3-TA-luc), IL-6 10 ng/mL, 24 hours
For each record, check the reported IC50: if it is below 0.02 µM write y, else write n.

Compound: Cc1cc(Oc2cc(NC(=O)c3cc4cc5c(cc4s3)OCCC5S(C)(=O)=O)cc(Cl)n2)ccc1Cl (stereo not drawn)
Experimental system: STAT3 (Homo sapiens)
Class name: y
//
Compound: Cc1ccc(Oc2cc(NC(=O)c3cc4cc5c(cc4s3)OCCC5S(C)(=O)=O)cc(Cl)n2)cc1Cl (stereo not drawn)
Experimental system: STAT3 (Homo sapiens)
Class name: y
//
Compound: CS(=O)(=O)C1CCOc2cc3sc(C(=O)Nc4cc(Cl)nc(Oc5ccc(Cl)c(F)c5)c4)cc3cc21 (stereo not drawn)
Experimental system: STAT3 (Homo sapiens)
Class name: y
//
Compound: CS(=O)(=O)N1CCNc2cc3sc(C(=O)Nc4cc(Cl)nc(Oc5ccc(Cl)cc5)c4)cc3cc21
Experimental system: STAT3 (Homo sapiens)
Class name: y
//
Compound: COc1cc(F)cc(Oc2cc(NC(=O)c3cc4cc5c(cc4s3)OCCC5S(C)(=O)=O)cc(Cl)n2)c1 (stereo not drawn)
Experimental system: STAT3 (Homo sapiens)
Class name: y
//
Compound: CS(=O)(=O)C1COCc2cc3sc(C(=O)Nc4cc(Cl)nc(Oc5ccc(Cl)cc5)c4)cc3cc21 (stereo not drawn)
Experimental system: STAT3 (Homo sapiens)
Class name: y
//
Compound: [N-]=[N+]=NC1CCOc2cc3sc(C(=O)Nc4cc(Cl)nc(Oc5ccc(Cl)cc5)c4)cc3cc21 (stereo not drawn)
Experimental system: STAT3 (Homo sapiens)
Class name: n
//
Compound: CS(=O)(=O)C1CCOc2cc3sc(C(=O)Nc4cc(Cl)nc(Oc5cccc(C(F)(F)F)c5)c4)cc3cc21 (stereo not drawn)
Experimental system: STAT3 (Homo sapiens)
Class name: y
//
Compound: O=C(Nc1cc(Cl)nc(Oc2ccc(Cl)cc2)c1)c1cc2cc3c(cc2s1)OCCC3N1CCCC1=O (stereo not drawn)
Experimental system: STAT3 (Homo sapiens)
Class name: n
//
Compound: CS(=O)(=O)C1CCCOc2cc3sc(C(=O)Nc4cc(Cl)nc(Oc5ccc(Cl)cc5)c4)cc3cc21 (stereo not drawn)
Experimental system: STAT3 (Homo sapiens)
Class name: n
//
Compound: CS(=O)(=O)[C@]1(F)CCOc2cc3sc(C(=O)Nc4cc(Cl)nc(Oc5ccc(Cl)cc5)c4)cc3cc21
Experimental system: STAT3 (Homo sapiens)
Class name: n
//
Compound: CS(=O)(=O)N1CCOc2cc3sc(C(=O)Nc4cc(Cl)nc(Oc5ccc(Cl)cc5)c4)cc3cc21
Experimental system: STAT3 (Homo sapiens)
Class name: y
//
Compound: COc1cc(Cl)ccc1Oc1cc(NC(=O)c2cc3cc4c(cc3s2)OCCC4S(C)(=O)=O)cc(Cl)n1 (stereo not drawn)
Experimental system: STAT3 (Homo sapiens)
Class name: n
//
Compound: COc1cc(Cl)cc(Oc2cc(NC(=O)c3cc4cc5c(cc4s3)OCC[C@@H]5S(C)(=O)=O)cc(Cl)n2)c1
Experimental system: STAT3 (Homo sapiens)
Class name: y
//
Compound: CS(=O)(=O)C1CCOc2cc3sc(C(=O)Nc4cc(Cl)nc(Oc5ccc(Cl)cc5F)c4)cc3cc21 (stereo not drawn)
Experimental system: STAT3 (Homo sapiens)
Class name: y
